Target: Serine/threonine-protein kinase Nek2 (Homo sapiens);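 further: mean inhibition value from the GSK PKIS kinase screening panel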
Sequence (whole entry): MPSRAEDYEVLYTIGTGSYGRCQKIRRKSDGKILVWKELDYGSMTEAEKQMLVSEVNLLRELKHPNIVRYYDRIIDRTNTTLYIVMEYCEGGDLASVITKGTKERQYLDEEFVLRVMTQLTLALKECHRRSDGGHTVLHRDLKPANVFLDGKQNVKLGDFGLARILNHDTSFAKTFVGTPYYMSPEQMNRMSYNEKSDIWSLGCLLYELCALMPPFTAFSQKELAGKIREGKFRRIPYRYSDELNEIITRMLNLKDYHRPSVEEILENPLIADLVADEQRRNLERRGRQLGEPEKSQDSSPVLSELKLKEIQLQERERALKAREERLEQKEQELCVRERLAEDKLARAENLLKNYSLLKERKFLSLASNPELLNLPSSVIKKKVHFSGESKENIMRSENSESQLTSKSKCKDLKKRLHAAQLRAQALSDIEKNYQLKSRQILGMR
Conditions: at 0.1 µM
parameterMeasured: inhibition (%)
Answers are plain numbers, in %.

In the examples that follow, each entry is paired with its recorded inhibition.
{"columns": ["compound", "inhibition [%]"],
 "data": [
  ["COc1ccc(-c2nn3ncccc3c2-c2ccnc(Nc3ccc(Cl)c(C(F)(F)F)c3)n2)cc1", 2.35],
  ["CCCN1CCC(Oc2cc(Nc3nc(Nc4cccc(F)c4C(N)=O)c4cc[nH]c4n3)c(OC)cc2Cl)CC1", -0.38],
  ["NS(=O)(=O)c1cccc(-c2ccc3c(NC(=O)C4CC4)n[nH]c3c2)c1", -1.41],
  ["CCCN1CCC=C(c2ccc(Nc3nc(Nc4ccccc4C(N)=O)c4cc[nH]c4n3)c(C)c2)C1", 6.91],
  ["Cc1ccc(C(=O)NC2CCCCC2)cc1-c1ccc(C(=O)NCC2CC2)cc1", 3.04]
]}

Below are 7 compounds. Give each one its inhibition.
1. Cc1nn(C)c2cc(N(C)c3ccnc(Nc4cccc(S(N)(=O)=O)c4)n3)ccc12
2. CCn1c(-c2nonc2N)nc2cncc(C(=O)N3CC[C@H](N)C3)c21
3. NCc1ccc(-c2nc(-c3ccc(Cl)c(O)c3)c(-c3ccncc3)[nH]2)cc1
4. Fc1cccc(COc2ccc(Nc3ncnc4sc(-c5cccs5)cc34)cc2Cl)c1
5. [O-][S+]1CCN(Cc2ccc(-c3ccc4ncnc(Nc5ccc(OCc6ccccc6)c(F)c5)c4c3)o2)CC1
6. Cc1ccc(NC(=O)c2ccnc(N3CCCC3)c2)cc1-c1ccc(C(=O)NCC2CC2)cc1
7. Fc1cccc(COc2ccc(Nc3ncnc4cc(-c5ccc[nH]5)sc34)cc2Cl)c1

Response line:
3.82
5.3
-2.48
2.88
3.45
5.44
3.51

* * *

test system: Epidermal growth factor receptor (Homo sapiens), P00533 [T790M]; conditions: at 1 µM
Sequence (P00533 whole entry T790M): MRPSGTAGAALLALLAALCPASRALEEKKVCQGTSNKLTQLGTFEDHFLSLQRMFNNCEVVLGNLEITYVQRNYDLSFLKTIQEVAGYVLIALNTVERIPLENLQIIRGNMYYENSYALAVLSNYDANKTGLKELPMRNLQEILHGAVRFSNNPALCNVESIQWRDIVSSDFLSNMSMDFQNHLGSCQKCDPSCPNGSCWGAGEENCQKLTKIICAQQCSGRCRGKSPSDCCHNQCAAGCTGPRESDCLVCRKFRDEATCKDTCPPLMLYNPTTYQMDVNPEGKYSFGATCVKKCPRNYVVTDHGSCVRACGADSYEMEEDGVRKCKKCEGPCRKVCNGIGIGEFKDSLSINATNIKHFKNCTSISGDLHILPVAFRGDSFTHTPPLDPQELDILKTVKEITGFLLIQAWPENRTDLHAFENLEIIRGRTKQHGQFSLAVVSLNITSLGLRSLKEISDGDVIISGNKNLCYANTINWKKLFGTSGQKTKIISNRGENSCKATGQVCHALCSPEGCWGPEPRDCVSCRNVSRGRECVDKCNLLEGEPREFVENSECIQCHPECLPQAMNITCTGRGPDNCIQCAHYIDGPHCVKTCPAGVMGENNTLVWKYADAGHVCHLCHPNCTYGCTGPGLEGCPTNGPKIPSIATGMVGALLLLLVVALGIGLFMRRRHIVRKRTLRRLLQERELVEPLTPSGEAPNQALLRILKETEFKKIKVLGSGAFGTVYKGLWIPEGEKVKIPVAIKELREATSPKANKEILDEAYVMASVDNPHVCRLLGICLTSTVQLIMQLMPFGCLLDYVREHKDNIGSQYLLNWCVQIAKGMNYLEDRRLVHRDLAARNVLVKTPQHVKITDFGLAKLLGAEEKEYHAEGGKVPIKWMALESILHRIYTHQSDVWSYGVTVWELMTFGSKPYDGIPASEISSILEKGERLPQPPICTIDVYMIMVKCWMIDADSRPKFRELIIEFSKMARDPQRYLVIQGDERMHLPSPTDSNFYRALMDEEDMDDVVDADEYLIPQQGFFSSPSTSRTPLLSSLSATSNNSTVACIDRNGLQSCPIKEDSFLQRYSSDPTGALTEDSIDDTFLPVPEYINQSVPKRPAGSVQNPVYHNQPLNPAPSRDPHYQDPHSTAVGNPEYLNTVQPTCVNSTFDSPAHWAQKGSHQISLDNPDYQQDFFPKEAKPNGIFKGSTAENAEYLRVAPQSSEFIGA
parameterMeasured: inhibition (%)
Numbers only, in %.

In the examples that follow, each entry is paired with its recorded inhibition.
{"columns": ["compound", "measurementUnit", "inhibition"],
 "data": [
  ["CC1=C(C(=O)Nc2ccc3[nH]ncc3c2)C(c2ccc(Cl)c(Cl)c2)CC(=O)N1 (stereo not given)", "%", 0.85],
  ["COc1ccc(COc2ccc(Cc3cnc(N)nc3N)cc2OC)cc1", "%", -2.86],
  ["Nc1ncnc2occ(-c3ccc(NC(=O)Nc4cc(C(F)(F)F)cc(C(F)(F)F)c4)cc3)c12", "%", -2.28],
  ["CCCN1CCC(Oc2cc(Nc3nc(Nc4cccc(F)c4C(N)=O)c4cc[nH]c4n3)c(OC)cc2Cl)CC1", "%", -0.49]
]}

Now look at this entry.
Prompt line: Need inhibition of NS(=O)(=O)c1ccc(N/N=C2\C(=O)Nc3ccc(C(=O)NCCc4c[nH]cn4)cc32)cc1 , thanks.
Response line: 1.79

* * *

For each entry below, report its inhibition value.
target: Protein-tyrosine kinase 6 (Homo sapiens) (UniProt Q13882); conditions: at 0.1 µM
Sequence (Q13882 whole entry, looked up): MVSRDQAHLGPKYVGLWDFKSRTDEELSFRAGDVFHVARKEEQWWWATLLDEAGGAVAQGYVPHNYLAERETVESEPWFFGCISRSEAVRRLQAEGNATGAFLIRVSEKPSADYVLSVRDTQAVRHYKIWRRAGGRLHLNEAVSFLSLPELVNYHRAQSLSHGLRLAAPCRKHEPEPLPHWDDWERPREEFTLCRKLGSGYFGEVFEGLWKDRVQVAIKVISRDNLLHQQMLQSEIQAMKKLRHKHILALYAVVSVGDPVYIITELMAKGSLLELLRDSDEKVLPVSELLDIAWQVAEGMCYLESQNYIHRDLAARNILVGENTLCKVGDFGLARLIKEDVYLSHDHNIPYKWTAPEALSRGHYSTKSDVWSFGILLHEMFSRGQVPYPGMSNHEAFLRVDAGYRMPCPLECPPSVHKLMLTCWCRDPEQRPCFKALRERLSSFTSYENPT
Description: GSK_PKIS: BRK mean inhibition at 0.1 uM [Nanosyn]
Answers are plain numbers, in %.

In the examples that follow, each entry is paired with its recorded inhibition.
{"columns": ["compound", "measurementUnit", "inhibition"],
 "data": [
  ["COc1ccccc1Nc1ncc(-c2ccccc2)o1", "%", 2.03],
  ["COC(=O)Nc1nc2cc(Oc3ccc(NC(=O)Nc4cccc(C(=O)O)c4)cc3)ccc2[nH]1", "%", 0.95]
]}

Below are 4 compounds. Give each one its inhibition.
1. Cc1cc(O)cc(C)c1/C=C/c1cncc(-c2nn[nH]n2)c1
2. CN1CCC(C(=O)Nc2n[nH]c3nnc(-c4ccccc4)cc23)CC1
3. CS(=O)(=O)Nc1ccc(N/C=C2\C(=O)Nc3ccccc32)cc1
4. O=C1NC(=O)C(c2ccccc2Cl)=C1Nc1cccc(O)c1

Response line:
[29.6, 4.01, -4.62, 3.64]

* * *

tested on: Proto-oncogene tyrosine-protein kinase receptor Ret (Homo sapiens), P07949 [V804L]; details: at 1 µM
Sequence (P07949 whole entry V804L): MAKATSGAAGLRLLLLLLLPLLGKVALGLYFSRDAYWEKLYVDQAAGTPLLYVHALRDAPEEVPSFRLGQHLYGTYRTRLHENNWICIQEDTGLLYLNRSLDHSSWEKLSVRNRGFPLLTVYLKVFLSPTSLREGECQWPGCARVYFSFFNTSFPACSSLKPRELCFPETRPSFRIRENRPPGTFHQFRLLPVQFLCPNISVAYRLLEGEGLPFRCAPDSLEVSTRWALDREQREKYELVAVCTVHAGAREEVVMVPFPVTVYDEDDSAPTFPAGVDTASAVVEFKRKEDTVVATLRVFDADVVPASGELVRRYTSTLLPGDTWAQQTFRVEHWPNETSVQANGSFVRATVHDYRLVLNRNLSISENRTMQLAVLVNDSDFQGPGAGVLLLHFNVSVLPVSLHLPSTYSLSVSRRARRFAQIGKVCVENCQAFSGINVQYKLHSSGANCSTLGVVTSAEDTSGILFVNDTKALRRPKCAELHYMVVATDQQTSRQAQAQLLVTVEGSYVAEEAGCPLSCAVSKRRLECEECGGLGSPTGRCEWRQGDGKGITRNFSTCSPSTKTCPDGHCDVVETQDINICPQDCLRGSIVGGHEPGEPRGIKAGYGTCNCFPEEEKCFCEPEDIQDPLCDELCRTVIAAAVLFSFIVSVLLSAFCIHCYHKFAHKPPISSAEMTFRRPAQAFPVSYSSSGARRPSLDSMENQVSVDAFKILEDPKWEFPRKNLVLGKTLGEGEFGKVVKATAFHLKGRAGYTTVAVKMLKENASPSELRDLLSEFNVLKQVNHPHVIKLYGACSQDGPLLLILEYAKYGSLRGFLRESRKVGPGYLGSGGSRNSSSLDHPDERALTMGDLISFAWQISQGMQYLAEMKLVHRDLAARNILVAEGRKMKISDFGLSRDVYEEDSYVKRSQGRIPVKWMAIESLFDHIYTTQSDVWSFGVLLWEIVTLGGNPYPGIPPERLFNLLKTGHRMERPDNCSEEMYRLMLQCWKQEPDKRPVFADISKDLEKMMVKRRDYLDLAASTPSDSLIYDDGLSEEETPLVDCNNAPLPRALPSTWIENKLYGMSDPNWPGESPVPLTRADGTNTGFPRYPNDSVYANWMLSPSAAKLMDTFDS
For each entry below, report its inhibition value.
Please make sure the unit comes right after the number.

Below are 5 molecules. Give each one its inhibition.
1. O=C1NC(=O)C(N2CCc3ccccc32)=C1c1ccc(Cl)cc1
2. COc1ccc(-c2ccncc2)cc1C(N)=O
3. CCn1c(-c2nonc2N)nc2c(N3CCCC3)nccc21
4. c1cnn2ncc(-c3ccnc(Nc4ccc5c(c4)OCCO5)n3)c2c1
5. CCn1c(-c2nonc2N)nc2c(C#CC(C)(C)O)nc(OC[C@@H](N)c3ccccc3)cc21

Response line:
1. 9.11%
2. 9.41%
3. -0.73%
4. 22%
5. 14.4%

* * *

For each entry below, report its inhibition value.
molecular target: Dual specificity tyrosine-phosphorylation-regulated kinase 1A (Homo sapiens); conditions: at 0.1 µM
Description: GSK_PKIS: DYRK1A mean inhibition at 0.1 uM [Nanosyn]
Give bare numbers, in %.

In the examples that follow, each entry is paired with its recorded inhibition.
{"columns": ["substanceSmiles", "testedSystem", "inhibition, %"],
 "data": [
  ["COc1cc2ncn(-c3cc(OCc4ccccc4Cl)c(C(N)=O)s3)c2cc1OC", "Dual specificity tyrosine-phosphorylation-regulated kinase 1A (Homo sapiens)", 0.59],
  ["COc1cc2ncn(-c3cc(O[C@@H](C)c4ccccc4Cl)c(C(N)=O)s3)c2cc1OC", "Dual specificity tyrosine-phosphorylation-regulated kinase 1A (Homo sapiens)", 4.47],
  ["CN1CCC(C(=O)Nc2n[nH]c3nnc(-c4ccccc4)cc23)CC1", "Dual specificity tyrosine-phosphorylation-regulated kinase 1A (Homo sapiens)", 7.11],
  ["CCn1c(-c2nonc2N)nc2c(C#CC(C)(C)O)nc(OC[C@@H](N)c3ccccc3)cc21", "Dual specificity tyrosine-phosphorylation-regulated kinase 1A (Homo sapiens)", -0.38]
]}

Now look at this entry.
Prompt line: Kindly state the measured inhibition obtained for COc1cc2c(cc1Nc1nc(N3CCc4ccccc43)c3cc[nH]c3n1)N(C(=O)CN(C)C)CC2 with Dual specificity tyrosine-phosphorylation-regulated kinase 1A (Homo sapiens).
Response line: 0.78

* * *

target: Macrophage colony-stimulating factor 1 receptor (Homo sapiens) (UniProt P07333); conditions: at 1 µM;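 further: mean inhibition of FMS, from the GSK PKIS screening set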
Sequence (P07333 whole entry): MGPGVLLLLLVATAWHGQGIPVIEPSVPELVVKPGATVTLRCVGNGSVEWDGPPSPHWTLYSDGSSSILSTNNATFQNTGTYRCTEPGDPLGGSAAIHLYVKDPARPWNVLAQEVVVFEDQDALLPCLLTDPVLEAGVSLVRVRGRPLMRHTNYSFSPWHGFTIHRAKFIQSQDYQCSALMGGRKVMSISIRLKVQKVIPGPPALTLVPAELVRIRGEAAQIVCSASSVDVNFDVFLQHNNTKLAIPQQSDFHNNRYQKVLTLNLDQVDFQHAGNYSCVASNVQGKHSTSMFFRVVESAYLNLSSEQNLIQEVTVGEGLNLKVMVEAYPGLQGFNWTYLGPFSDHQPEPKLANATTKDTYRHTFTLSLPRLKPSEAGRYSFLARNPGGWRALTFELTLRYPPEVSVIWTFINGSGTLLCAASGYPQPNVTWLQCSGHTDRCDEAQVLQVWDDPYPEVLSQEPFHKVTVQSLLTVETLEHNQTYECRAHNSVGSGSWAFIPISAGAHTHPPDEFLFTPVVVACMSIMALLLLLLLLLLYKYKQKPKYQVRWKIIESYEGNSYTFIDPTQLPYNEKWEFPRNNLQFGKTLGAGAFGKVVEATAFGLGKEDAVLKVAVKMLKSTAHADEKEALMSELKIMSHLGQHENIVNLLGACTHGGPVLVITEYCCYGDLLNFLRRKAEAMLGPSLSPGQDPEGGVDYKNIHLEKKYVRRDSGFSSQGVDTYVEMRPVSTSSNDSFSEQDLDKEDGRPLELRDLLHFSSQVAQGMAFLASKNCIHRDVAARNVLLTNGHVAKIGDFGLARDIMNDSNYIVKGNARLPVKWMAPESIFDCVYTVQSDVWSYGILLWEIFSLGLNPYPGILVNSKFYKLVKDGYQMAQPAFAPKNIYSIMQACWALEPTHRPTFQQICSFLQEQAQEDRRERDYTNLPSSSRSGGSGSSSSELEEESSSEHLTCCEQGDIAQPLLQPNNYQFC
parameterMeasured: inhibition (%)
Numbers only, in %.

In the examples that follow, each entry is paired with its recorded inhibition.
{"columns": ["compound", "measurementUnit", "inhibition"],
 "data": [
  ["CCn1c(-c2nonc2N)nc2ccncc21", "%", 0],
  ["O=C1NC(=O)C(c2cccc(Cl)c2)=C1Nc1ccc(O)c(Cl)c1", "%", 46.8],
  ["COc1ccccc1Nc1ncc(-c2ccccc2)o1", "%", 53.5]
]}

Below are 5 compounds. Give each one its inhibition.
1. O=C(Nc1n[nH]c2nc(-c3ccco3)c(Br)cc12)C1CC1
2. CC1=C(C(=O)Nc2ccc3[nH]ncc3c2)C(c2ccc(Cl)c(Cl)c2)CC(=O)N1 (stereo not drawn)
3. NS(=O)(=O)c1ccc(N/N=C2\C(=O)Nc3ccc(C(=O)NCCc4c[nH]cn4)cc32)cc1
4. CN1CCC(C(=O)Nc2n[nH]c3nnc(-c4ccccc4)cc23)CC1
5. [O-][S+]1CCN(Cc2ccc(-c3ccc4ncnc(Nc5ccc(OCc6ccccc6)c(F)c5)c4c3)o2)CC1

Response line:
1: 1.78; 2: 1.97; 3: 15.4; 4: 3.05; 5: 3.3

* * *

molecular target: Insulin-like growth factor 1 receptor (Homo sapiens); details: at 1 µM;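 further: each value is a mean percent inhibition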
parameterMeasured: inhibition (%)
Answers are plain numbers, in %.

{"columns": ["molecule", "measurementUnit", "numericReadout"],
 "data": [
  ["Cc1ccc(C(=O)NC2CCCCC2)cc1-c1ccc(C(=O)NCC2CC2)cc1", "%", 5.21],
  ["[O-][S+]1CCN(Cc2ccc(-c3ccc4ncnc(Nc5ccc(OCc6ccccc6)c(F)c5)c4c3)o2)CC1", "%", 2.99],
  ["CC1=C(C(=O)Nc2ccc3[nH]ncc3c2)C(c2ccc(F)cc2)NC(=O)N1 (centres undefined)", "%", 8.59],
  ["CN(C)c1cc2c(Nc3ccc4nc(Cc5ccccc5)[nH]c4c3)ncnc2cn1", "%", 11.5],
  ["CC1=C(C(=O)Nc2ccc3[nH]ncc3c2)C(c2ccc(Cl)c(Cl)c2)CC(=O)N1 (centres undefined)", "%", 1.11]
]}

Below are 4 molecules. Give each one its inhibition.
1. COC(=O)Nc1nc2cc(Oc3ccc(NC(=O)Nc4cccc(C(=O)O)c4)cc3)ccc2[nH]1
2. CCn1c(-c2nonc2N)nc2cncc(C(=O)N3CC[C@H](N)C3)c21
3. Cc1cccc(-c2n[nH]cc2-c2ccc3ncccc3n2)n1
4. COc1cc2ncn(-c3cc(O[C@H](C)c4ccccc4Cl)c(C(N)=O)s3)c2cc1OC

Response line:
1: -7.4; 2: 6; 3: -0.01; 4: 3.13
